Data origin: patent US20260077009A1

Test: Stability of NTI164 in oil at room temperature (UPLC, weekly assay, CBDA as marker)
Settings: Day 14 (29 Jul. 2021)
ASSAY_METRIC: Cannabinoid concentration in NTI164 (sample 28206-7) (mg/mL)

* CCCCCc1cc(O)c2c(c1)OC(C)(CCC=C(C)C)C=C2 (stereo not drawn) | 1.22
* CCCCCc1cc(O)c(C/C=C(\C)CCC=C(C)C)c(O)c1C(=O)O | 1.19
* C=C(C)[C@@H]1CCC(C)=C[C@H]1c1c(O)cc(CCCCC)cc1O [CBD, Cannabidiol, reference compound] | 0.56
* C=C(C)[C@@H]1CCC(C)=C[C@H]1c1c(O)cc(CCCCC)c(C(=O)O)c1O | 48.09
* CCCCCc1cc2c(c(O)c1C(=O)O)[C@@H]1C=C(C)CC[C@H]1C(C)(C)O2 [(Tetrahydrocannabinolic acid) (D9-THCA), Tetrahydrocannabinolic acid] | 0.69
